Source: patent US20210045385A1

Would you mind telling me the reported Ryegrass, Italian plant response rating (0 to 100 scale) of each entry?
Tested on: Italian ryegrass (Lolium mutiflorum)
EXPERIMENT: Test C postemergence, visual plant response rating
Format: in vivo
CONDITION: Test C, postemergence, 125 g ai/ha
Answers are plain numbers.

C#CCO/N=C(\c1ccc(F)c(Cl)c1)c1c(O)c(C)nn(C)c1=O = 40
Cc1nn(C)c(=O)c(/C(=N\OCc2ccccc2)c2cccc(Cl)c2)c1O = 0
CO/N=C(/c1ccc(Cl)c(Cl)c1)c1c(O)c(C)nn(C)c1=O = 0

Could you report Ryegrass, Italian plant response rating (0 to 100 scale) for every entry in the following list?
1. CO/N=C(/c1cc(Cl)c(F)c(Cl)c1)c1c(O)c(C)nn(C)c1=O
2. C=CCO/N=C(/c1c(O)c(C)nn(C)c1=O)c1cccc2cc(Cl)ccc12
3. Cc1nn(C)c(=O)c(/C(=N\OC(C)C)c2cccc3cc(Cl)ccc23)c1O
4. CON=C(c1cccc(OCC(F)(F)F)c1)c1c(O)c(C)nn(C)c1=O
5. CC(C)O/N=C(/c1c(O)c(Cl)nn(C)c1=O)c1ccc(F)c2ccccc12

RESULT:
60
30
0
60
40

====

Test system: foxtail, giant (giant foxtail, Setaria faberi)
EXPERIMENT: Test C postemergence, visual plant response rating
Type: in vivo
CONDITION: Postemergence, 31 g ai/ha
Label t when Foxtail, Giant plant response rating (0 to 100 scale) >= 30; otherwise f.

CO/N=C(\c1ccc(F)c(Cl)c1)c1c(O)c(C)nn(C)c1=O [Compound 219] = f

QUERY: Test whether the compound CO/N=C(\c1cccc(/C=C\Cl)c1)c1c(O)c(C)nn(C)c1=O [Compound 288] records Foxtail, Giant plant response rating (0 to 100 scale) of 30 or higher.
RESULT: t

QUERY: Test whether the compound CON=C(c1cccc(OC)c1)c1c(O)c(C)nn(C)c1=O [Compound 204] records Foxtail, Giant plant response rating (0 to 100 scale) of 30 or higher.
RESULT: f

QUERY: Test whether the compound CO/N=C(/c1c(O)c(C)nn(C)c1=O)c1cccc2cc(Cl)ccc12 [Compound 159] records Foxtail, Giant plant response rating (0 to 100 scale) of 30 or higher.
RESULT: t

====

Would you mind telling me the reported Foxtail, Green plant response rating (0 to 100 scale) of each entry?
Tested on: foxtail, green (green foxtail, Setaria viridis)
EXPERIMENT: Test A preemergence, visual plant response rating
Assay type: in vivo
CONDITION: 500 g ai/ha Preemergence; approx. 10 days
Give bare numbers.

Could you report Foxtail, Green plant response rating (0 to 100 scale) for every entry in the following list?
1. CON=C(c1ccccc1Cl)c1c(O)c(C)nn(C)c1=O (stereo in doubt)
2. CCO/N=C(/c1ccc(C)cc1)c1c(O)c(C)nn(C)c1=O
3. CO/N=C(\c1c(O)c(C)nn(C)c1=O)c1cccc2ccccc12
4. Cc1cccc(/C(=N\O)c2c(O)c(C)nn(C)c2=O)c1
5. CO/N=C(\c1cc(C)ccc1C)c1c(O)c(C)nn(C)c1=O

RESULT:
[50, 0, 100, 0, 60]

====

Test system: galium (catchweed bedstraw, Galium aparine)
EXPERIMENT: Test C postemergence, visual plant response rating
Format: in vivo
CONDITION: Test C, postemergence, 125 g ai/ha
Label met when Galium plant response rating (0 to 100 scale) >= 80; otherwise not met.

Please review the entries below; each comes with its answer.
Cc1nn(C)c(=O)c(/C(=N/OCCO)c2cccc3cc(Cl)ccc23)c1O [Compound 240] = not met
CON=C(c1cc(Cl)cc(Cl)c1Cl)c1c(O)c(C)nn(C)c1=O [Compound 213] = met
Cc1nn(C)c(=O)c(C(=NOCC2CC2)c2cc(Cl)cc(Cl)c2Cl)c1O [Compound 293] = met
CO/N=C(/c1cc(F)cc(F)c1C)c1c(O)c(C)nn(C)c1=O [Compound 305] = not met

QUERY: Test whether the compound CO/N=C(\c1c(O)c(C)nn(C)c1=O)c1cccc2cc(Cl)ccc12 [Compound 300] records Galium plant response rating (0 to 100 scale) of 80 or higher.
RESULT: met

QUERY: Test whether the compound CO/N=C(/c1c(O)c(Cl)nn(C)c1=O)c1ccc(F)c2ccccc12 [Compound 207] records Galium plant response rating (0 to 100 scale) of 80 or higher.
RESULT: met

QUERY: Test whether the compound CO/N=C(\c1cc(Cl)c(F)c(Cl)c1)c1c(O)c(C)nn(C)c1=O [Compound 290] records Galium plant response rating (0 to 100 scale) of 80 or higher.
RESULT: met

QUERY: Test whether the compound CO/N=C(/c1cccc(/C=C/Cl)c1)c1c(O)c(C)nn(C)c1=O [Compound 285] records Galium plant response rating (0 to 100 scale) of 80 or higher.
RESULT: not met

====

Tested on: sedge umbrella (small-flower umbrella sedge, Cyperus difformis)
EXPERIMENT: Test D flooded paddy test, visual plant response rating
Assay type: in vivo
CONDITION: 250 g ai/ha, scale 0 to 100 (0 no effect, 100 complete control), 13 to 15 d
PARAMETER MEASURED: Plant response rating, Sedge, Umbrella (Flood)

The following compounds have reported results that may help.
C=CCON=C(c1cc(Cl)cc(Cl)c1Cl)c1c(O)c(C)nn(C)c1=O [Compound 294] = 0
C#CCO/N=C(\c1cccc(/C=C\Cl)c1)c1c(O)c(C)nn(C)c1=O [Compound 264] = 0
C#CCO/N=C(/c1ccc(F)c(Cl)c1)c1c(O)c(C)nn(C)c1=O [Compound 229] = 0

Could you report Plant response rating, Sedge, Umbrella (Flood) for every entry in the following list?
1. CO/N=C(\c1cccc(Br)c1)c1c(O)c(C)nn(C)c1=O [Compound 239]
2. C#CCO/N=C(\c1cc(C)cc(Cl)c1)c1c(O)c(C)nn(C)c1=O [Compound 155]
3. C#CCO/N=C(\c1cc(Cl)cc(Cl)c1Cl)c1c(O)c(C)nn(C)c1=O [Compound 187]

RESULT:
0
45
60

====

Tested on: foxtail, giant (giant foxtail, Setaria faberi)
EXPERIMENT: Test C postemergence, visual plant response rating
Format: in vivo
CONDITION: Postemergence, 31 g ai/ha
From the text: […]
PARAMETER MEASURED: Foxtail, Giant plant response rating (0 to 100 scale)
Give bare numbers.

The following compounds have reported results that may help.
C#CCO/N=C(\c1c(O)c(Cl)nn(C)c1=O)c1ccc(F)c2ccccc12 = 60
Cc1nn(C)c(=O)c(C(=NOC(C)C)c2cc(Cl)cc(Cl)c2F)c1O = 90
CO/N=C(\c1c(OC(C)=O)c(Cl)nn(C)c1=O)c1cc(Br)cc2ccccc12 = 30
CO/N=C(/c1c(O)c(Cl)nn(C)c1=O)c1ccc(F)c2ccccc12 = 30

Could you report Foxtail, Giant plant response rating (0 to 100 scale) for every entry in the following list?
1. C#CCO/N=C(/c1c(O)c(C)nn(C)c1=O)c1cccc2cc(Cl)ccc12
2. CC(C)O/N=C(/c1c(O)c(Cl)nn(C)c1=O)c1ccc(F)c2ccccc12
3. CO/N=C(\c1c(O)c(Cl)nn(C)c1=O)c1ccc(F)c2ccccc12
4. Cc1nn(C)c(=O)c(/C(=N\OC(C)C)c2cccc3cc(Cl)ccc23)c1O

RESULT:
[70, 70, 20, 70]

====

Would you mind telling me the reported Barnyardgrass plant response rating (0 to 100 scale) of each entry?
Tested on: barnyardgrass (Echinochloa crus-galli)
EXPERIMENT: Test C preemergence, visual plant response rating
Assay type: in vivo
CONDITION: 125 g ai/ha
Give bare numbers.

The following compounds have reported results that may help.
CO/N=C(/c1c(O)c(C)nn(C)c1=O)c1cccc2cc(Cl)ccc12 [Compound 159] = 40
CON=C(c1ccc(F)c(Br)c1)c1c(O)c(C)nn(C)c1=O [Compound 176] = 0
CON=C(c1cc(Cl)cc(OC)c1)c1c(O)c(C)nn(C)c1=O [Compound 175] = 70
CON=C(c1ccc(F)c(Br)c1)c1c(O)c(C)nn(C)c1=O [Compound 177] = 60
CON=C(c1cc(C)cc(Cl)c1)c1c(O)c(C)nn(C)c1=O [Compound 174] = 90
CCON=C(c1cc(Cl)cc(Br)c1)c1c(O)c(C)nn(C)c1=O [Compound 180] = 80
C#CCO/N=C(\c1ccc(Cl)c(Cl)c1)c1c(O)c(C)nn(C)c1=O [Compound 166] = 50

Consider now this further compound.
QUERY: // query Barnyardgrass plant response rating (0 to 100 scale) value for entry CO/N=C(/c1cc(C)cc(Cl)c1)c1c(O)c(C)nn(C)c1=O [Compound 173]
RESULT: 50

====

Tested on: Italian ryegrass (Lolium multiflorum)
EXPERIMENT: Test A postemergence, visual plant response rating
Type: in vivo
CONDITION: Postemergence, 125 g ai/ha; 0 to 100 scale (0 no effect, 100 complete control)
PARAMETER MEASURED: Ryegrass, Italian plant response rating
Answers are plain numbers.

The following compounds have reported results that may help.
CO/N=C(\c1ccccc1C#N)c1c(O)c(C)nn(C)c1=O [Compound 76] = 20
CON=C(c1cccc(C)c1F)c1c(O)c(C)nn(C)c1=O [Compound 70] = 0
Cc1ccccc1/C(=N/OC(C)C)c1c(O)c(C)nn(C)c1=O [Compound 19] = 20

Could you report Ryegrass, Italian plant response rating for every entry in the following list?
1. C=CCO/N=C(/c1c(O)c(C)nn(C)c1=O)c1ccc(F)c2ccccc12 [Compound 87]
2. CO/N=C(\c1ccc(F)cc1C)c1c(O)c(C)nn(C)c1=O [Compound 72]

RESULT:
1: 80; 2: 0
